Reference for the values: paper PMC11969009

# experiment: in vitro
# assayContext: human, microsomes, pH 7.4
readout: microsomal CLint (µL/min/mg)
One number for each entry, in µL/min/mg.

Consider CCON=C(c1ccc2cc(OC)ccc2c1)C1CCCN(C2CCC(O)CC2)C1 (stereo not shown) . Its measured microsomal CLint is 9.7

---

# experiment: physchem
# assayContext: pH 7.4
readout: chromatographic logD

Consider CCON=C(c1ccc2cc(OC)ccc2c1)C1CCCN(C2CCC(O)CC2)C1 (stereo not shown) [WEHI-P8] . Its measured chromatographic logD is 3.8

---

# systemTested: CYP2C9 (Homo sapiens)
# Sequence (P11712 whole entry): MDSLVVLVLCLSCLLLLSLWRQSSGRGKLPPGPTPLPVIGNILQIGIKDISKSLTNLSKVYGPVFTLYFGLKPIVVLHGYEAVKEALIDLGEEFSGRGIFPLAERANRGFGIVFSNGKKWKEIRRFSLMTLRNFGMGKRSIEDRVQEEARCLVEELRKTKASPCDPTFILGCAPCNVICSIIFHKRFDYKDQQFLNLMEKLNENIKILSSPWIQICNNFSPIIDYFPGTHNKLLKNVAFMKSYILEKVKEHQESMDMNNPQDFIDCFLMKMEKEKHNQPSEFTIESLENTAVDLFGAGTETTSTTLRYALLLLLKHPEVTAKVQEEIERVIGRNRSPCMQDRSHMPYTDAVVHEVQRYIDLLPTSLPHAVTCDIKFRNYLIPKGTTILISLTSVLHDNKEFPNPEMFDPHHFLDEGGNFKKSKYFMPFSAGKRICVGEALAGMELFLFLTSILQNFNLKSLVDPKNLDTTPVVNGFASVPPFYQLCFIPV
readout: IC50

Let me check: CCON=C(c1ccc2cc(OC)ccc2c1)C1CCCN(C2CCC(O)CC2)C1 (stereo not shown) , system CYP2C9 (Homo sapiens), measured IC50 is > 20 µM

---

# systemTested: UniProt P10632
# Sequence (P10632 whole entry): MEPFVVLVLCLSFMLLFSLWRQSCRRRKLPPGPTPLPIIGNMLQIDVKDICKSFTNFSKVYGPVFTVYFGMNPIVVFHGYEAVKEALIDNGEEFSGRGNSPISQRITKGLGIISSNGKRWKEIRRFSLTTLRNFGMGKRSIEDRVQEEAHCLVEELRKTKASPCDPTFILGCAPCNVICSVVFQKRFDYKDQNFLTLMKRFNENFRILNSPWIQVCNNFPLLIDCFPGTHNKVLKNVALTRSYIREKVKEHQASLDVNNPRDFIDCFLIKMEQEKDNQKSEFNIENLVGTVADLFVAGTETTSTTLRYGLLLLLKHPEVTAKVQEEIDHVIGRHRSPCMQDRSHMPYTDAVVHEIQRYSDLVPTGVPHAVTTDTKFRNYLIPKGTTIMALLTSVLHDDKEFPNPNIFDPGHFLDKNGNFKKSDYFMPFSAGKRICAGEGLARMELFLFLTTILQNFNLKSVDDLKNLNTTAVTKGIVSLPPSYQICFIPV
# experiment: biochemical
pIC50: −log10 of the molar value.
readout: pIC50

Consider CCON=C(c1ccc2cc(OC)ccc2c1)C1CCCN(C2CCC(O)CC2)C1 (stereo not shown) [WEHI-P8] . Its measured pIC50 is < 4.70

---

# experiment: in vitro
# assayContext: mouse, hepatocytes, pH 7.4
readout: hepatocyte CLint (µL/min/1e6 cells)
Numbers only, in µL/min/1e6 cells.

Consider CCON=C(c1ccc2cc(OC)ccc2c1)C1CCCN(C2CCC(O)CC2)C1 (stereo not shown) . Its measured hepatocyte CLint is 16.8

---

Parameter Kd, tested on SARS-CoV-2 PLpro (Severe acute respiratory syndrome coronavirus 2, UniProt P0DTD1), listed per item.
Just so you know, I need the unit written after the number.

CCON=C(c1ccc2cc(OC)ccc2c1)C1CCCN(C2CCC(O)CC2)C1 (stereo not drawn): 9 nM
COc1ccc2cc(C(=O)C3CCCN(C4CCCC4)C3)ccc2c1 (stereo not drawn) [WEHI-P1]: 8300 nM

Shift focus to the following entry.
Let me check: `CO/N=C(/c1ccc2cc(OC)ccc2c1)[C@@H]1CCCN([C@H]2CC[C@@H](O)CC2)C1` , system SARS-CoV-2 PLpro (Severe acute respiratory syndrome coronavirus 2, UniProt P0DTD1), measured Kd is 18 nM

---

# experiment: in vivo
# assayContext: male, C57BL/6, mouse, po, 100 mg/kg
readout: Tmax (h)
Give bare numbers, in h.

Consider CCON=C(c1ccc2cc(OC)ccc2c1)C1CCCN(C2CCC(O)CC2)C1 (stereo not shown) . Its measured Tmax is 1

---

# System: CYP3A4/5
# assayContext: human, microsomes, pH 7.4
readout: IC50 (nM)
Numbers only, in nM.

Consider CC(=O)N1CCN(c2ccc(OCC3COC(Cn4ccnc4)(c4ccc(Cl)cc4Cl)O3)cc2)CC1 (stereo not shown) [Ketoconazole, reference compound] . Its measured IC50 is 11

---

# experiment: in vitro
# assayContext: mouse, hepatocytes, pH 7.4
readout: half-life (h)
Give bare numbers, in h.

Consider CCON=C(c1ccc2cc(OC)ccc2c1)C1CCCN(C2CCC(O)CC2)C1 (stereo not shown) . Its measured half-life is 1.38

---

# experiment: in vitro
# assayContext: mouse, microsomes, pH 7.4
readout: half-life (min)
Numbers only, in min.

Consider CCON=C(c1ccc2cc(OC)ccc2c1)C1CCCN(C2CCC(O)CC2)C1 (stereo not shown) . Its measured half-life is 41.5
